Let's look at some molecules and their measured Population Tubulin-Different-Phenotype (%).
Tested on: U2OS
Assay: Multiplex assay against U2OS
Assay type: toxicity, cell-based
Conditions: human, 48 h, 10 µM, compound concentration 10 uM, replicate 1
State the answer as a number, implicitly in %.

Reference set (3 entries):
{"columns": ["molecule", "reading"],
 "data": [
  ["CN(C)C(=O)N[C@H]1CC[C@H](CCN2CCN(c3cccc(Cl)c3Cl)CC2)CC1.Cl [CARIPRAZINE HYDROCHLORIDE]", 96],
  ["CC(C)NCC(O)COc1ccc(CCOCC2CC2)cc1.Cl (stereo unspecified) [BETAXOLOL HYDROCHLORIDE]", 21],
  ["Cc1nc(-c2ccc(-c3ccc(C(=O)N4CCc5cc6c(cc54)C4(CCN(C)CC4)CO6)cc3)c(C)c2)no1 [SB-224289]", 97]
]}

# value of Population Tubulin-Different-Phenotype (%), U2OS, item Cl.N#Cc1ccc2[nH]cc(CCCCN3CCN(c4ccc5oc(C(N)=O)cc5c4)CC3)c2c1 [VILAZODONE HYDROCHLORIDE] = 100

Entry c1cn2cc(-c3ccc4cn[nH]c4c3)nc(Nc3ccc(N4CCOCC4)cc3)c2n1 [ENTOSPLETINIB] : Population Tubulin-Different-Phenotype (%) on U2OS = 16

The molecule Cc1cc(C)cc(-c2cnc3cc(Cl)c(-c4cccc(O)c4)cc3c2OCCCN)c1 on U2OS: Population Tubulin-Different-Phenotype (%) was 75

Log: U2OS, molecule Cc1c(-c2ccc(O)cc2)n(Cc2ccc(OCCN3CCCCCC3)cc2)c2ccc(O)cc12 [BAZEDOXIFENE] , Population Tubulin-Different-Phenotype (%) = 88

// Population Tubulin-Different-Phenotype (%) (U2OS) for Cc1csc2c(N[C@@H](C)CN3CCN(S(=O)(=O)c4ccc(Cl)c(Cl)c4)CC3)ncnc12 = 100

Field Population Tubulin-Different-Phenotype (%) (U2OS), entry CN1CCN(c2ccc(OC(F)(F)F)c(Nc3ncc4c(n3)-c3c(c(C(N)=O)nn3CCO)CC4)c2)CC1 [ONVANSERTIB] : 43

The molecule COc1ncc(-c2ccc3nccc(-c4ccnnc4)c3c2)cc1NS(=O)(=O)c1ccc(F)cc1F [OMIPALISIB] on U2OS: Population Tubulin-Different-Phenotype (%) was 61

Population Tubulin-Different-Phenotype (%) value, target or system U2OS, for CNCc1ccccc1-c1csc([C@H](C)Nc2nc(C)nc3cc(OC)c(OC)cc23)c1 [BAY-294] : 100

====

This section presents compounds with their documented Growth Rate values.
System: HEK-293T
Assay: Incucyte cell viability with HEK293T; note: filed as whole numbers so only -1 and 0 and 1 occur
Assay type: toxicity, cell-based
Conditions: human, 24 h, 10 µM, compound concentration 10 uM, replicate number 2, timepoint 24 hours
Respond using a number only.

Please review the entries below; each comes with its answer.
{"columns": ["compound", "system.under.test", "Growth Rate"],
 "data": [
  ["CN([C@@H]1CCc2c(CC(=O)O)c3ccccc3n2C1)S(=O)(=O)c1ccc(F)cc1", "HEK-293T", 1],
  ["CC(C)(C)NCC(O)COc1cccc2[nH]c(=O)[nH]c12.Cl (configuration not stated)", "HEK-293T", 0],
  ["C[C@H]1CC(=O)Nc2cc(C(=O)NCCC3CC3)ccc2N1C(=O)N1CC2CC2C1 (some centres not stated)", "HEK-293T", 1]
]}

Noted for CN1C(=O)[C@@H](N2CCc3cn(Cc4ccccc4)nc3C2=O)COc2ccccc21 : its Growth Rate reads 1

Growth Rate measured on CN(C)[C@@H]1CCN(c2cc(-c3ccccc3)nc3ccnn23)C1 [(R)-ZINC-3573] = 0

The compound COc1ccc(CNC(=O)c2cc(-c3cncc(Cl)c3)cnc2-c2ccccn2)nc1OC showed Growth Rate equal to 0

Noted for O=C(NCc1ncc(C(F)(F)F)cc1Cl)c1ccc2c(c1)C1(CCS(=O)(=O)CC1)[C@H](C1CC1)N2S(=O)(=O)c1ccc(F)cc1 : its Growth Rate reads 0

Lab note: CCc1cc(C(C)=O)c(O)cc1OCCCCCC(C)(C)c1nn[nH]n1 gave Growth Rate of 1

====

// reported Population Fragmented Nuclei (%) for each item listed
Test system: Fibroblast
Experiment: Multiplex assay against human fibroblast
Assay type: toxicity, cell-based
Settings: 12 h, 10 µM, compound concentration 10 uM, replicate 2
Report the figure in % without appending any unit label.

{"columns": ["compound", "Population Fragmented Nuclei (%)"],
 "data": [
  ["Cc1cc(C)cc(-c2cnc3cc(Cl)c(-c4cccc(O)c4)cc3c2OCCCN)c1", 16],
  ["C[C@@H](NCCCc1cccc(C(F)(F)F)c1)c1cccc2ccccc12.Cl [CINACALCET HYDROCHLORIDE]", 20],
  ["Cl.N#Cc1ccc2[nH]cc(CCCCN3CCN(c4ccc5oc(C(N)=O)cc5c4)CC3)c2c1 [VILAZODONE HYDROCHLORIDE]", 20],
  ["CN(C)C(=O)N[C@H]1CC[C@H](CCN2CCN(c3cccc(Cl)c3Cl)CC2)CC1.Cl [CARIPRAZINE HYDROCHLORIDE]", 17]
]}

Sure, the documented Population Fragmented Nuclei (%) for O=C1NCN(c2ccccc2)C12CCN(CCCOc1ccc(F)cc1)CC2 [SPIRAMIDE] is 3

====

Form field: Population Hoechst High Intensity Objects (%) (one value per entry).
Test system: Fibroblast
Experiment: Multiplex assay against human fibroblast
Assay type: toxicity, cell-based
Conditions: 24 h, 1 µM, compound concentration 1 uM, replicate 1

{"columns": ["compound", "system.under.test", "reading"],
 "data": [
  ["CC(C)(O)CNc1ncc(-c2ccnc(Nc3ccnc(Cl)c3)n2)c(CC2CC2)n1", "Fibroblast", "10%"],
  ["CN(C)C(=O)N[C@H]1CC[C@H](CCN2CCN(c3cccc(Cl)c3Cl)CC2)CC1.Cl [CARIPRAZINE HYDROCHLORIDE]", "Fibroblast", "10%"],
  ["Cc1csc2c(N[C@@H](C)CN3CCN(S(=O)(=O)c4ccc(Cl)c(Cl)c4)CC3)ncnc12", "Fibroblast", "8%"]
]}

Documented Population Hoechst High Intensity Objects (%) of Cl.N#Cc1ccc2[nH]cc(CCCCN3CCN(c4ccc5oc(C(N)=O)cc5c4)CC3)c2c1 [VILAZODONE HYDROCHLORIDE] : 25%

What the record says about COc1cccc([C@@H](C)NCCCc2ccccc2Cl)c1.Cl [TECALCET HYDROCHLORIDE] : Population Hoechst High Intensity Objects (%) is 10%

Record summary for Cn1cc(-c2[nH]c3cc(NC(=O)[C@H](N)C4CCCCC4)cc4c3c2C=NNC4=O)cn1 : reported Population Hoechst High Intensity Objects (%) = 12%

Quick note, Population Hoechst High Intensity Objects (%) for C=CC(=O)Nc1cccc(C(=O)Nc2ccc(Nc3cc(-c4[nH]c(SC)nc4C)ccn3)cc2)c1 landed at 13%

Field Population Hoechst High Intensity Objects (%) (entry CN(C)CC#Cc1ccc(OCCCc2sc(N3CCc4cccc(C(=O)Nc5nc6ccccc6s5)c4C3)nc2C(=O)O)c(F)c1 ) reads 11%

Population Hoechst High Intensity Objects (%) reading for CC[C@H](C)C(=O)O[C@H]1C[C@@H](C)C=C2C=C[C@H](C)[C@H](CC[C@@H]3C[C@@H](O)CC(=O)O3)[C@H]21 : 11%

Given item CNc1nc(NCc2ccc(NS(C)(=O)=O)cc2Cl)cc(-c2ccccn2)n1 , the value recorded as its Population Hoechst High Intensity Objects (%) is 11%

The compound identified as O=C(NCCCC1CCCCC1)c1ccc(CNC(=O)c2cnn(-c3ccccc3)c2C(F)(F)F)cc1 registered its Population Hoechst High Intensity Objects (%) at 13% [middle of 4 runs]

The reported value for CN1CCN(CCOc2cc(OC3CCOCC3)c3c(Nc4c(Cl)ccc5c4OCO5)ncnc3c2)CC1 in terms of Population Hoechst High Intensity Objects (%) is 12%

Notebook: Cc1c(-c2ccc(O)cc2)n(Cc2ccc(OCCN3CCCCCC3)cc2)c2ccc(O)cc12 , Population Hoechst High Intensity Objects (%) read as 14%

Entry C[C@@]1(C(=O)Nc2ccc(F)nc2)CCCN1c1nc(Nc2cc(C3CC3)n[nH]2)c2cccn2n1 , Population Hoechst High Intensity Objects (%) reported as 9%

compound c1cn2cc(-c3ccc4cn[nH]c4c3)nc(Nc3ccc(N4CCOCC4)cc3)c2n1 , Population Hoechst High Intensity Objects (%) observed: 11%

====

System: Fibroblast
Assay: Multiplex assay against human fibroblast
Assay type: toxicity, cell-based
Conditions: 12 h, 10 µM, compound concentration 10 uM, replicate 2
measurement.type: Population Tubulin-Different-Phenotype (%)
Number only, in %; omit the unit.

{"columns": ["compound", "reading"],
 "data": [
  ["Cc1csc2c(N[C@@H](C)CN3CCN(S(=O)(=O)c4ccc(Cl)c(Cl)c4)CC3)ncnc12", 98],
  ["COc1cc(-n2cnc3cc(-c4ccc(Cl)cc4)sc3c2=O)ccc1OCCN1CCCC1", 97]
]}

Given item CN1CCC[C@@H]1CCO[C@](C)(c1ccccc1)c1ccc(Cl)cc1.O=C(O)/C=C/C(=O)O [CLEMASTINE FUMARATE] , the value recorded as its Population Tubulin-Different-Phenotype (%) is 40

The compound listed as CN1CCN(CCOc2cc(OC3CCOCC3)c3c(Nc4c(Cl)ccc5c4OCO5)ncnc3c2)CC1 has a reported Population Tubulin-Different-Phenotype (%) of 100

Form: compound = Cc1nc(Nc2n[nH]c3c2CN(C(=O)N[C@H](CN(C)C)c2ccccc2)C3(C)C)c2sccc2n1 ; Population Tubulin-Different-Phenotype (%) = 33

Reference for the values: ChEMBL document CHEMBL4689842
